Data credit: patent US20170022281A1

Target: T1, murine PRLR (Biacore antigen) (murine, UniProt Q08501 20-229, limits assumed)
T1 construct: also called muPRLR
T1 sequence (looked up): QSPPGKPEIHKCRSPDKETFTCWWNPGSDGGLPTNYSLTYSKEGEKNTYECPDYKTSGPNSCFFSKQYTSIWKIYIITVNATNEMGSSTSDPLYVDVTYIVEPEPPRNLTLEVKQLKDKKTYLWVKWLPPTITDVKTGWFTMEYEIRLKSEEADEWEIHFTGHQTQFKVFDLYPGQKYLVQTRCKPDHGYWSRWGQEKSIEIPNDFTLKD
Assay: SPR Biacore
recorded endpoint: Kd (nM)

- chAb7 (antibody, human IgG1, kappa, V domains shown, chimeric, murine variable and human G1/kappa constant regions) VH: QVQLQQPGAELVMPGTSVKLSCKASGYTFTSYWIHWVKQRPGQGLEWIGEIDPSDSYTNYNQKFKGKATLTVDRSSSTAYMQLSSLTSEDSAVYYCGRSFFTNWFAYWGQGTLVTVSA VL: DVVMTQTPLSLPVSLGDQASISCRSSQSLVHSNGNTYLHWYLQKPGQSPKLLIYKVSNRFSGVPDRFSGSGSGTDFTLKINRVEAEDLGVYFCSQSTHVPFTFGSGTKLEIKT: 44.9
